tested on: Human immunodeficiency virus 1; assay: Antiviral activity against HIV1 3B assessed as inhibition of virus-induced cytopathogenicity in MT4 cells after 4 days by MTT assay; type: functional, organism-based; conditions: Human immunodeficiency virus 1, 3B, MT4, 96 h
pEC50: −log10 of the molar value.
Entries annotated with measured pEC50
experimental-endpoint: pEC50

* Cc1cn([C@H]2C[C@H](N=[N+]=[N-])[C@@H](CO)O2)c(=O)[nH]c1=O [ZIDOVUDINE] | 9.15
* O=C1c2sccc2N(Cc2ccccc2Cl)S(=O)(=O)N1Cc1ccccc1 | 5.32
* CN1c2ccsc2C(=O)N(Cc2ccccc2)S1(=O)=O | 4.15
* Cc1ccnc2c1NC(=O)c1cccnc1N2C1CC1 [NEVIRAPINE] | 7.52
* N#CCN1C(=O)N(Cc2ccccc2)S(=O)(=O)c2cscc21 | 6.05
* O=C1c2sccc2N(Cc2ccc(Cl)cc2Cl)S(=O)(=O)N1Cc1ccccc1 | 4.28
* O=C1c2sccc2N(Cc2cccc(Cl)c2)S(=O)(=O)N1Cc1ccccc1 | 5.23

====

tested on: Human immunodeficiency virus 1; assay: Antiviral activity against HIV1 3B assessed as inhibition of virus-induced cytopathogenicity in MT4 cells after 4 days by MTT assay; assay type: functional, organism-based; settings: Human immunodeficiency virus 1, 3B, MT4, 96 h
pEC50: −log10 of the molar value.
experimental-endpoint: pEC50

- O=C1c2sccc2N(Cc2ccccc2Br)S(=O)(=O)N1Cc1ccccc1: 5.14
- N#Cc1cccc(CN2c3ccsc3C(=O)N(Cc3ccccc3)S2(=O)=O)c1: 5.40
- N#Cc1ccccc1CN1c2ccsc2C(=O)N(Cc2ccccc2)S1(=O)=O: 5.29
- O=C1N(Cc2ccccc2Cl)c2cscc2S(=O)(=O)N1Cc1ccccc1: 7.00

====

assay: Cytotoxicity against human MT4 cells after 4 days by MTT assay; type: cell-based
Listed below: CC50 at 96 h values for each entry.
experimental-endpoint: CC50 at 96 h (µM)

* N#CCN1C(=O)N(Cc2ccccc2)S(=O)(=O)c2cscc21 | 503
* O=C1c2sccc2N(Cc2ccc([N+](=O)[O-])cc2)S(=O)(=O)N1Cc1ccccc1 | 268
* CN1c2ccsc2C(=O)N(Cc2ccccc2)S1(=O)=O | 202
* N#CCN1c2ccsc2C(=O)N(Cc2ccccc2)S1(=O)=O | 5.7
* O=C1c2sccc2N(Cc2ccccc2)S(=O)(=O)N1Cc1ccccc1 | 37.5

====

assay: Cytotoxicity against human MT4 cells after 4 days by MTT assay; assay type: cell-based
Let's look at some compounds and their measured CC50 at 96 h.
experimental-endpoint: CC50 at 96 h

* O=C1c2sccc2N(Cc2ccc(Cl)cc2)S(=O)(=O)N1Cc1ccccc1 | 8.2 µM
* O=C1c2sccc2N(Cc2ccccc2Br)S(=O)(=O)N1Cc1ccccc1 | > 270 µM
* O=C1c2sccc2N(Cc2ccc(Cl)cc2Cl)S(=O)(=O)N1Cc1ccccc1 | 247 µM
* O=C1N(Cc2ccccc2Cl)c2cscc2S(=O)(=O)N1Cc1ccccc1 | > 119 µM
* O=C1c2sccc2NS(=O)(=O)N1Cc1ccccc1 | 374 µM
* Cc1ccnc2c1NC(=O)c1cccnc1N2C1CC1 [NEVIRAPINE] | 683 µM
* N#Cc1ccc(CN2c3ccsc3C(=O)N(Cc3ccccc3)S2(=O)=O)cc1 | 8.5 µM
* O=C1c2sccc2N(Cc2ccc(Br)cc2)S(=O)(=O)N1Cc1ccccc1 | 6.6 µM
* O=C1c2sccc2N(Cc2ccccc2Cl)S(=O)(=O)N1Cc1ccccc1 | > 299 µM
* Cc1cn([C@H]2C[C@H](N=[N+]=[N-])[C@@H](CO)O2)c(=O)[nH]c1=O [ZIDOVUDINE] | 35.6 µM
